target: T1, huIL-17RA-FLAG-polyHis (human, UniProt Q96F46 33-320); assay: binning; IL-17RA held by bead mAb P
T1 construct: also called IL-17RA-FLAG-pHis; wild-type IL-17RA
OBSERVATION_TYPE: normalized MFI
Give only the figure.

AMH6/AML6 (antibody, IgG2, V domains shown, human mAb from IgG2 XenoMouse mice; also called AM-6; antibody E) VH: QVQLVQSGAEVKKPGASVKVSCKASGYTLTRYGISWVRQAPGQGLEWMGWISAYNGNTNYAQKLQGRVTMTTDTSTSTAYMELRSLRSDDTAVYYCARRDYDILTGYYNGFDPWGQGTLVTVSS VL: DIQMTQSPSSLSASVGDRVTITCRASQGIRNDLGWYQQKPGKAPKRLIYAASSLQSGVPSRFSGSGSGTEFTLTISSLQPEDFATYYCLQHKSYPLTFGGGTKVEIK    3530
AMH20/AML20 (antibody, IgG2, V domains shown, human mAb from IgG2 XenoMouse mice; also called AM-20; antibody R) VH: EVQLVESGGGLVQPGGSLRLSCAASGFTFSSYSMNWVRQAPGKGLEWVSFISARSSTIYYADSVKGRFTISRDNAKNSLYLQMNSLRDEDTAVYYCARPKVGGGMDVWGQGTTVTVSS VL: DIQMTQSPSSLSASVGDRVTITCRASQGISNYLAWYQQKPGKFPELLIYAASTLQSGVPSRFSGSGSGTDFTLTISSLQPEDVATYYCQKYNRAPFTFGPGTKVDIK    1410
AMH10/AML10 (antibody, IgG2, V domains shown, human mAb from IgG2 XenoMouse mice; also called AM-10; antibody F) VH: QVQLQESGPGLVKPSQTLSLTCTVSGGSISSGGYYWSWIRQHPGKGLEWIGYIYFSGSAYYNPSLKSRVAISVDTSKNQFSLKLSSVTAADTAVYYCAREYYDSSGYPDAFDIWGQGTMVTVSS VL: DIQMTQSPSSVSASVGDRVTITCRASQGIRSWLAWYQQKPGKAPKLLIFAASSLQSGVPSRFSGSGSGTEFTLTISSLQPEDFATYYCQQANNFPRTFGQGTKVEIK    1720
AMH7/AML7 (antibody, IgG2, V domains shown, human mAb from IgG2 XenoMouse mice; also called AM-7; antibody D) VH: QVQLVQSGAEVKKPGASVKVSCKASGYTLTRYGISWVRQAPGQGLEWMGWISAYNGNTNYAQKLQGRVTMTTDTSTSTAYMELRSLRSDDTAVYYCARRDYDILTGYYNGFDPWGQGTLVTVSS VL: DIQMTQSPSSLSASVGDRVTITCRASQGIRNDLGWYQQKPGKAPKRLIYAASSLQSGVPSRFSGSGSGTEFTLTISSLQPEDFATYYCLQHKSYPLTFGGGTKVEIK    5640

# next binder below
Given the binder AMH21/AML21 (antibody, IgG2, V domains shown, human mAb from IgG2 XenoMouse mice; also called AM-21; antibody Q) VH: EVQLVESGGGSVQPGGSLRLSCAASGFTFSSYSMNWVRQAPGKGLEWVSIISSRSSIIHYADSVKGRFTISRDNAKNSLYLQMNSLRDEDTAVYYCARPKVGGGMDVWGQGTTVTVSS VL: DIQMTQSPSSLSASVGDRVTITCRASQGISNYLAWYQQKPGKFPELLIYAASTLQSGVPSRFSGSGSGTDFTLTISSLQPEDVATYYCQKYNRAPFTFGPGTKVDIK , what is its reported normalized MFI?
2160
